Urease (Canavalia ensiformis, UniProt P07374): recorded IC50 for assorted molecules
Sequence (P07374 whole entry): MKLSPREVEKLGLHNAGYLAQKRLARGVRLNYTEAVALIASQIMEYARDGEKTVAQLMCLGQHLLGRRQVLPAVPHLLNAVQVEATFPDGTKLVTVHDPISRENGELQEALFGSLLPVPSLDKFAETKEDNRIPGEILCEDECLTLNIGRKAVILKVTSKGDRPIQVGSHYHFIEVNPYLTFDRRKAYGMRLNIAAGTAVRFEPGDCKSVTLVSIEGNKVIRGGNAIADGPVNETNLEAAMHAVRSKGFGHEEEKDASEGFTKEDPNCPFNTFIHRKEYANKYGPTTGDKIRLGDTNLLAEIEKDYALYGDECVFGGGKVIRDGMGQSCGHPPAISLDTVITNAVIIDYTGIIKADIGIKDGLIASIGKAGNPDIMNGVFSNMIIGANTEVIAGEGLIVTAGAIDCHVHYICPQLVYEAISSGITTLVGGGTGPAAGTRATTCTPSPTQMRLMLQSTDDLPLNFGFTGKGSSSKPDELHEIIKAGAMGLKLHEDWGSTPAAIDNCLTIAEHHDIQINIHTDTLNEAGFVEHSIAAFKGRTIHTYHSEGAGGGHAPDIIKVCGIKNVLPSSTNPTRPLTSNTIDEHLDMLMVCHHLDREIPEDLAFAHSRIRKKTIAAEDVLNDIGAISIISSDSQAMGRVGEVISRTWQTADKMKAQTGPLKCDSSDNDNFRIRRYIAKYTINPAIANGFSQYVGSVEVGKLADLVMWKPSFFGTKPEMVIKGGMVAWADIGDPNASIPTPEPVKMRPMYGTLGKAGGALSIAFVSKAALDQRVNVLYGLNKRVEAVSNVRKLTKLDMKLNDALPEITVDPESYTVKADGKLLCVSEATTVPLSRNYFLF
Give the value in nM but do not write nM after it.

- RECORD_SMILES: "Sc1nnc(Cn2c(C3CC3)nc3cc(Cl)c(Cl)cc32)o1"
  ENDPOINT_UNIT: "nM"
  IC50: 1340
- RECORD_SMILES: "O=C(Cn1c(C2CC2)nc2cc(Cl)c(Cl)cc21)N/N=C/c1ccccc1"
  ENDPOINT_UNIT: "nM"
  IC50: 2070
- RECORD_SMILES: "CCNC(=S)NNC(=O)Cn1c(C2CC2)nc2cc(Cl)c(Cl)cc21"
  ENDPOINT_UNIT: "nM"
  IC50: 280
- RECORD_SMILES: "NNC(=O)Cn1c(C2CC2)nc2cc(Cl)c(Cl)cc21"
  ENDPOINT_UNIT: "nM"
  IC50: 1920
- RECORD_SMILES: "O=C(Cn1c(C2CC2)nc2cc(Cl)c(Cl)cc21)N/N=C/c1ccc(F)c(Br)c1"
  ENDPOINT_UNIT: "nM"
  IC50: 60

molecule "COC(=O)Cn1c(C2CC2)nc2cc(Cl)c(Cl)cc21" , IC50 observed: 1120

Documented IC50 of "O=C(Cn1c(C2CC2)nc2cc(Cl)c(Cl)cc21)N/N=C/c1ccccc1O" : 220

Just so you know, measured IC50 for "O=C(Cn1c(C2CC2)nc2cc(Cl)c(Cl)cc21)N/N=C/c1ccc(Cl)cc1" came out at 290

Sample "Cn1c(S)nnc1Cn1c(C2CC2)nc2cc(Cl)c(Cl)cc21" ; IC50 observed: 170

Note to self: IC50 recorded for "CCn1c(S)nnc1Cn1c(C2CC2)nc2cc(Cl)c(Cl)cc21" was 380

====

Quick record of IC50 values for Urease (Canavalia ensiformis).
Expressed in nM, but write only the number.

Some solved entries appear below for comparison.
- COMPOUND: "O=C(Cn1c(C2CC2)nc2cc(Cl)c(Cl)cc21)N/N=C/c1cc(Br)ccc1O"
  STUDY_SYSTEM: "Urease (Canavalia ensiformis)"
  ENDPOINT_UNIT: "nM"
  OBSERVED_RESULT: 140
- COMPOUND: "O=C(Cn1c(C2CC2)nc2cc(Cl)c(Cl)cc21)N/N=C/c1cc(Cl)ccc1O"
  STUDY_SYSTEM: "Urease (Canavalia ensiformis)"
  ENDPOINT_UNIT: "nM"
  OBSERVED_RESULT: 150
- COMPOUND: "Clc1cc2nc(C3CC3)[nH]c2cc1Cl"
  STUDY_SYSTEM: "Urease (Canavalia ensiformis)"
  ENDPOINT_UNIT: "nM"
  OBSERVED_RESULT: 170

What the record says about "CN(C)c1ccc(/C=N/NC(=O)Cn2c(C3CC3)nc3cc(Cl)c(Cl)cc32)cc1" : IC50 is 1490

Recorded result, NC(N)=S [THIOUREA] , IC50: 560

Reference source for all entries: ChEMBL document CHEMBL4033708
